- Test Protocol: recombinant barcode read abundance after kanamycin selection (control-corrected) (log10(CPM+1)); higher = more efficient recombination; sequences stand for … in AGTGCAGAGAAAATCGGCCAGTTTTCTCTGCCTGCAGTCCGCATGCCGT…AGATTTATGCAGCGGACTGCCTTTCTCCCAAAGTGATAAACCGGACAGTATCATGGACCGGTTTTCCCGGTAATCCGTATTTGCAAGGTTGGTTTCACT; site = the 11-nt target;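 further: IS621 recombinase and bridge RNA in Escherichia coli cells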
Decide by recombinant barcode read abundance (log10): equal to or exceeding 0.2 means label 1, less means label 0.

ATCTTAGCTTGGGTTCTAACCTGTTGCCT (site ATCTTAGCTAG) ... label 1
TGGGGCCCTTGGGTTCTAACCTGTTGCCT (site TGGTGCCCTAC) ... label 0
CGTCGCACTTGGGTTCTAACCTGTTGCCT (site CCTCGCACTAG) ... label 0
GCCGAGACTTGGGTTCTAACCTGTTGCCT (site GCCGATACTAG) ... label 0
ATTTCTACTTGGGTTCTAACCTGTTGCGA (site ATTTCTACTTC) ... label 0
CGGAGAGCTTGGGTTCTAACCTGTTGCCT (site CGGAGAGCTAG) ... label 1
ACCTACGCTTGGGTTCTAACCTGTTGCCT (site ACCTACTCTAG) ... label 1
GGCAGCTCTTGGGTTCTAACCTGTTGCTT (site GGCAGCTCTAA) ... label 1

Kindly determine if recombinant barcode read abundance (log10) recorded for GGCACAGCTTGGGTTCTAACCTGTTGCCT (site GGCACCGCTAG) is above or exactly 0.2.
label 0

Is reported recombinant barcode read abundance (log10) greater than or equal to 0.2 here: TCAGGGACTTGGGTTCTAACCTGTTGCAG (site TCAGGGACTCT)
label 1
